Give Ki for every item shown.
# testedSystem: full-length hepatitis C viral protein NS3•4A (Hepatitis C virus genotype 1a, UniProt P27958)
# Construct: hexa-histidine (N); made in house; host or cells: Sf9 insect cells (baculovirus, pVL1392)
# testDescription: biochemical
# Design: species or system HCV sub-type strain 1a
# conditionDetails: Enzyme Assay 2 (HCV NS3 Peptide Cleavage Assay) activity, apparent Ki class

Previously resolved entries follow.
INSERT INTO assay_data (compound, result) VALUES
  ('CC(C)(C)[C@H](NC(=O)[C@H]1C[C@@H]1c1ccccc1)C(=O)N1C[C@@]2(CC(c3cccc(Cl)c3)=NO2)C[C@H]1C(=O)N[C@@H](CC1CC1)C(=O)C(N)=O [Compound 699]', '< 100 nM'),
  ('CCC[C@H](NC(=O)[C@@H]1C[C@]2(CC(c3cccc(Cl)c3)=NO2)CN1C(=O)c1[nH]c2ccccc2c1CC(=O)N(CC)CC)C(=O)C(=O)NC1CC1 [Compound 420]', '> 500 nM'),
  ('CCC[C@H](NC(=O)[C@@H]1C[C@]2(CC(c3cc(Cl)c(OC)cc3C)=NO2)CN1C(=O)[C@@H](NC(=O)CC1CCCCCC1)C(C)(C)C)C(=O)C(=O)NC1CC1 [Compound 606]', '100 to 500 nM'),
  ('CNC(=O)C(=O)[C@H](CC1CC1)NC(=O)[C@@H]1C[C@]2(CC(c3cc(C)c(OC)c(C)c3)=NO2)CN1C(=O)[C@@H](NC(=O)CC1CCCCC1)C(C)(C)C [Compound 725]', '< 100 nM');

Record Ki for all entries; do not skip any.
1. C=C[C@@H]1C[C@]1(NC(=O)[C@@H]1C[C@]2(CC(c3cccc(Cl)c3)=NO2)CN1C(=O)[C@@H](NC(=O)OC(C)(C)C)C(C)(C)C)C(=O)O [Compound 439]
2. CCC[C@H](NC(=O)[C@@H]1C[C@]2(CC(c3cccc(Cl)c3)=NO2)CN1C(=O)[C@@H](NC(=O)CC1CCCCC1)C(C)(C)C)C(=O)C(=O)NCc1ccco1 [Compound 441]
3. C=C[C@@H]1C[C@]1(NC(=O)[C@@H]1C[C@]2(CC(c3cccc(Cl)c3)=NO2)CN1C(=O)[C@@H](NC(=O)OC1CCOC1)C(C)(C)C)C(=O)NS(=O)(=O)C1CC1 (stereo partly shown) [Compound 45]
4. CCC[C@H](NC(=O)[C@@H]1C[C@]2(CC(c3cccc(Cl)c3)=NO2)CN1C(=O)[C@@H](NC(=O)CC1CCCCC1)C(C)(C)C)C(=O)C(=O)NC[C@H]1CCCO1 [Compound 277]
5. C=C[C@@H]1C[C@]1(NC(=O)[C@@H]1C[C@]2(CC(c3cccc(Cl)c3)=NO2)CN1C(=O)[C@@H](NC(=O)CC1CCCCC1)C(C)(C)C)C(=O)NS(=O)(=O)C1CC1 [Compound 162]
6. CNC(=O)C(=O)[C@H](CC1CC1)NC(=O)[C@@H]1C[C@@]2(CC(c3nc(-c4ccccc4)no3)=NO2)CN1C(=O)[C@@H](NC(=O)OC1CCCC1)C(C)(C)C [Compound 694]

Reply text:
["> 500 nM", "100 to 500 nM", "100 to 500 nM", "100 to 500 nM", "< 100 nM", "100 to 500 nM"]

###

# testedSystem: HCV NS3 protease domain (Hepatitis C virus genotype 1b)
# Construct: The first 181 amino acids of NS3 (residues 1027-1207 of the viral polyprotein); hexa-histidine (C); made in house; host or cells: E. coli BL21/DE3 pLysS
# testDescription: biochemical
# conditionDetails: Enzyme Assay 1 (HCV NS3 Protease Domain Peptide Cleavage Assay) activity, apparent Ki class
I'd appreciate it if you could supply Ki values for the items below.

Reference set (6 entries):
INSERT INTO results (compound, valuetype, result) VALUES
  ('CCC[C@H](NC(=O)[C@@H]1C[C@]2(CC(c3cncc(Cl)c3)=NO2)CN1C(=O)[C@@H](NC(=O)CC1CCCCC1)C(C)(C)C)C(=O)C(=O)NC1CC1 [Compound 292]', 'Ki', '100 to 500 nM'),
  ('CCC[C@H](NC(=O)[C@@H]1C[C@]2(CC(c3cccc(Cl)c3)=NO2)CN1C(=O)[C@@H](NC(=O)[C@H](OC)c1ccccc1)C(C)(C)C)C(=O)C(=O)NC1CC1 [Compound 187]', 'Ki', '> 500 nM'),
  ('C#CCCC(NC(=O)[C@@H]1C[C@]2(CC(c3cccc(Cl)c3)=NO2)CN1C(=O)[C@@H](NC(=O)CC1CCCCC1)C(C)(C)C)C(=O)C(=O)NC1CC1 (some centres unmarked) [Compound 453]', 'Ki', '100 to 500 nM'),
  ('CCC[C@H](NC(=O)[C@@H]1C[C@]2(CC(c3ccc([N+](=O)[O-])cc3)=NO2)CN1C(=O)[C@@H](NC(=O)O[C@H]1CCOC1)C(C)(C)C)C(=O)C(=O)NC1CC1 [Compound 511]', 'Ki', '100 to 500 nM'),
  ('CCC[C@H](NC(=O)[C@@H]1C[C@]2(CC(c3cccc(Cl)c3)=NO2)CN1C(=O)[C@@H](NC(=O)CC1(C)CCCCC1)C(C)(C)C)C(=O)C(=O)NC1CC1 [Compound 29]', 'Ki', '100 to 500 nM'),
  ('CCC[C@H](NC(=O)[C@@H]1C[C@]2(CC(c3cccc(Cl)c3)=NO2)CN1C(=O)[C@@H](Nc1cccc(OC)c1)C(C)(C)C)C(=O)C(=O)NC1CC1 [Compound 214]', 'Ki', '> 500 nM');

Batch lookup, Ki per entry.
1. CCC[C@H](NC(=O)[C@@H]1C[C@]2(CC(CC)=NO2)CN1C(=O)[C@@H](NC(=O)NC(C)(C)C)C(C)(C)C)C(=O)C(=O)NC1CC1 [Compound 559]
2. CCC[C@H](NC(=O)[C@@H]1C[C@]2(CC(c3cccc(Cl)c3)=NO2)CN1C(=O)[C@@H](NC(=O)CC1CCOC(C)(C)C1)C(C)(C)C)C(=O)C(=O)NC1CC1 (some centres unmarked) [Compound 121]
3. CCC[C@H](NC(=O)[C@@H]1C[C@]2(CC(c3cc(Cl)cc(Cl)c3)=NO2)CN1C(=O)[C@@H](NC(=O)CC1CCOCC1)C(C)(C)C)C(=O)C(=O)NC1CC1 [Compound 285]
4. CCC[C@H](NC(=O)[C@@H]1C[C@]2(CC(c3cccc(Cl)c3)=NO2)CN1C(=O)[C@@H](NC(=O)CC1CCCCC1)C(C)(C)C)C(=O)C(=O)Nc1ccon1 [Compound 293]
5. CCC[C@H](NC(=O)[C@@H]1C[C@]2(CC(c3cccc(Cl)c3)=NO2)CN1C(=O)[C@@H](NC(=O)c1n[nH]c(=O)c2ccccc12)C(C)(C)C)C(=O)C(=O)NC1CC1 [Compound 381]

Reply text:
> 500 nM
100 to 500 nM
100 to 500 nM
> 500 nM
100 to 500 nM

###

# testedSystem: full-length hepatitis C viral protein NS3•4A (Hepatitis C virus genotype 1a, UniProt P27958)
# Construct: hexa-histidine (N); made in house; host or cells: Sf9 insect cells (baculovirus, pVL1392)
# testDescription: biochemical
# Parameters: species or system HCV sub-type strain 1a
# conditionDetails: Enzyme Assay 2 (HCV NS3 Peptide Cleavage Assay) activity, apparent Ki class
I'd be grateful if you could share measured Ki for these entries.

INSERT INTO results (compound, result) VALUES
  ('CCC[C@H](NC(=O)[C@@H]1C[C@]2(CC(c3cccc(Cl)c3)=NO2)CN1C(=O)[C@@H](NC(=O)CC1CCCCC1)C(C)(C)C)C(=O)C(=O)NC1(c2ccccc2)CC1', '> 500 nM');

Parameters: items (list). Returns: Ki for each item.
1. CCC[C@H](NC(=O)[C@@H]1C[C@]2(CC(c3ccc(N(C)C)c(Cl)c3)=NO2)CN1C(=O)[C@@H](NC(=O)CC1CCCCC1)C(C)(C)C)C(=O)C(=O)NC1CC1
2. CCC[C@H](NC(=O)[C@@H]1C[C@]2(CC(c3ccc(F)c(Cl)c3)=NO2)CN1C(=O)[C@@H](NC(=O)OC(C)(C)C)C(C)(C)C)C(=O)C(=O)NC

Reply text:
["100 to 500 nM", "< 100 nM"]

Quick one: give me Ki for each item below, same order please.
1. C#CCCC(NC(=O)[C@@H]1C[C@]2(CC(c3cc(Cl)c(OC)cc3OC)=NO2)CN1C(=O)[C@@H](NC(=O)CC1CCOCC1)C(C)(C)C)C(=O)C(=O)NC1CC1 (some centres unmarked)
2. CC(C)(C)[C@H](NC(=O)CC1CCCCC1)C(=O)N1C[C@@]2(CC(c3cccc(Cl)c3)=NO2)C[C@H]1C(=O)N[C@@H](CC1CC1)C(=O)C(N)=O

Reply text:
1. < 100 nM
2. < 100 nM
